- Tested on: Rattus norvegicus
- experiment-description: Induction of LLR(lower lip retraction) by the compound in rats at a dose of 16 mg/kg
- Type: functional
observed-property: LLR score

### Prompt Answer with the recorded LLR score for the compound listed here: COc1ccccc1N1CCN(CCCCN2C(=O)[C@H]3CCCC[C@H]3C2=O)CC1
### Response 0.8

### Prompt Answer with the recorded LLR score for the compound listed here: O=C1c2ccccc2C(=O)N1C1CCC(N2CCc3ccccc3C2)CC1 (centres undefined)
### Response 0.2

### Prompt Answer with the recorded LLR score for the compound listed here: COc1ccccc1N1CCN(C2CCC(N3C(=O)[C@H]4CCCC[C@H]4C3=O)CC2)CC1 (some centres undefined)
### Response 0.3

### Prompt Answer with the recorded LLR score for the compound listed here: COc1ccccc1N1CCN(C2CCC(N3C(=O)c4ccccc4C3=O)CC2)CC1 (centres undefined)
### Response 1.2

====

Provide the recorded FBP mean score for the entries that follow.
- Species on record: Rattus norvegicus
- experiment-description: Induction of behavioral syndrome(FBP: flat body posture) by the compound in reserpine pretreated rats at a dose of 4.
- Assay type: functional

### Prompt Answer with the recorded FBP mean score for the compound listed here: COc1ccccc1N1CCN(CCCCN2C(=O)[C@H]3CCCC[C@H]3C2=O)CC1
### Response 0.2

### Prompt Answer with the recorded FBP mean score for the compound listed here: COc1ccccc1N1CCN(CCCCN2C(=O)c3ccccc3C2=O)CC1 [NAN-190]
### Response 0.1

### Prompt Answer with the recorded FBP mean score for the compound listed here: COc1ccccc1N1CCN(C2CCC(N3C(=O)[C@H]4CCCC[C@H]4C3=O)CC2)CC1 (some centres undefined)
### Response 0.2

### Prompt Answer with the recorded FBP mean score for the compound listed here: COc1ccccc1N1CCN(C2CCC(N3C(=O)c4ccccc4C3=O)CC2)CC1 (centres undefined)
### Response 0.2

====

- Species on record: Rattus norvegicus
- experiment-description: Induction of behavioral syndrome(FBP: flat body posture) by the compound in reserpine pretreated rats at a dose of 8.
- Format: functional
observed-property: FBP mean score

### Prompt Answer with the recorded FBP mean score for the compound listed here: COc1ccccc1N1CCN(C2CCC(N3C(=O)[C@H]4CCCC[C@H]4C3=O)CC2)CC1 (some centres undefined)
### Response 0.1

### Prompt Answer with the recorded FBP mean score for the compound listed here: COc1ccccc1N1CCN(C2CCC(N3C(=O)c4ccccc4C3=O)CC2)CC1 (centres undefined)
### Response 0.2

### Prompt Answer with the recorded FBP mean score for the compound listed here: COc1ccccc1N1CCN(CCCCN2C(=O)c3ccccc3C2=O)CC1 [NAN-190]
### Response 0.2

### Prompt Answer with the recorded FBP mean score for the compound listed here: COc1ccccc1N1CCN(CCCCN2C(=O)[C@H]3CCCC[C@H]3C2=O)CC1
### Response 0.2

====

- Organism: Rattus norvegicus
- experiment-description: Effective dose of the required to inhibit symptoms produced by 8-OH-DPAT
- Type: functional
Provide the recorded ED50 for the entries that follow.
All answers are understood in mg/kg, so give the number only.

### Prompt Answer with the recorded ED50 for the molecule listed here: COc1ccccc1N1CCN(CCCCN2C(=O)c3ccccc3C2=O)CC1 [NAN-190]
### Response 1.7

### Prompt Answer with the recorded ED50 for the molecule listed here: COc1ccccc1N1CCN(CCCn2nnc3ccccc32)CC1
### Response 6.5

### Prompt Answer with the recorded ED50 for the molecule listed here: COc1ccccc1N1CCN(C2CCC(N3C(=O)c4ccccc4C3=O)CC2)CC1 (stereo unspecified)
### Response 7.5

### Prompt Answer with the recorded ED50 for the molecule listed here: COc1ccccc1N1CCN(CCCCN2C(=O)[C@H]3CCCC[C@H]3C2=O)CC1
### Response 7.5

### Prompt Answer with the recorded ED50 for the molecule listed here: COc1ccccc1N1CCN(C2CCC(N3C(=O)[C@H]4CCCC[C@H]4C3=O)CC2)CC1 (stereo partly specified)
### Response 20

====

Provide the recorded LLR score for the entries that follow.
- System: Rattus norvegicus
- experiment-description: Effect on 8-OH-DPAT-Induced LLR(lower lip retraction) in rats at a dose of 16 mg/kg
- Assay type: functional
Please reply with the value in numeric form only.

### Prompt Answer with the recorded LLR score for the molecule listed here: COc1ccccc1N1CCN(C2CCC(N3C(=O)[C@H]4CCCC[C@H]4C3=O)CC2)CC1 (some centres undefined)
### Response 1.6

### Prompt Answer with the recorded LLR score for the molecule listed here: COc1ccccc1N1CCN(CCCCN2C(=O)[C@H]3CCCC[C@H]3C2=O)CC1
### Response 0.7

### Prompt Answer with the recorded LLR score for the molecule listed here: O=C1c2ccccc2C(=O)N1C1CCC(N2CCc3ccccc3C2)CC1 (centres undefined)
### Response 2.5

### Prompt Answer with the recorded LLR score for the molecule listed here: COc1ccccc1N1CCN(C2CCC(N3C(=O)c4ccccc4C3=O)CC2)CC1 (centres undefined)
### Response 0.6
